Molecular target: Bifunctional dihydrofolate reductase-thymidylate synthase (Toxoplasma gondii)
# label = T if IC50 < 30 nM else F

sampleSmiles: COc1cccc(SCc2cnc3nc(N)nc(N)c3n2)c1
answerLabel: F

sampleSmiles: COc1ccc(OC)c(N(C)Cc2cnc3nc(N)nc(N)c3c2C)c1
answerLabel: T

sampleSmiles: Nc1nc(N)c2cc(CNc3cccc4ccccc34)cnc2n1
answerLabel: F

sampleSmiles: COc1cc(NCc2cnc3nc(N)nc(N)c3c2C)cc(C(F)(F)F)c1
answerLabel: T

sampleSmiles: COc1ccc(OC)c(CCc2cnc3nc(N)nc(N)c3n2)c1
answerLabel: F

sampleSmiles: Cc1ccc(C)c(NCc2cnc3nc(N)nc(N)c3c2C)c1
answerLabel: T

Request: Decide: IC50 of COc1ccc(SCc2cnc3nc(N)nc(N)c3n2)cc1OC strictly below 30 nM?
Response: F

Request: Try Nc1nc(N)c2cc(CNc3ccc(Cl)cc3)ccc2n1 next.
Response: F

Request: Nc1nc(N)c2nc(CSc3cccc(Cl)c3)cnc2n1 ?
Response: F

Request: Now this one: CCOc1ccc(OCC)c(N(C)Cc2cnc3nc(N)nc(N)c3c2C)c1
Response: T

Request: Please give the result for COc1ccc(NCc2cnc3nc(N)nc(N)c3c2C)cc1OC too.
Response: T

Request: Same question for COc1ccc(C)c(NCc2cnc3nc(N)nc(N)c3n2)c1 please.
Response: F

Request: And Nc1nc(N)c2nc(CNc3ccc(Cl)cc3)cnc2n1 ?
Response: F

Request: Field entry: CCOc1ccc(OCC)c(NCc2cnc3nc(N)nc(N)c3c2C)c1
Response: T

* * *

Hi there, I'd appreciate the recorded IC50 for every entry that follows.
Biological target: Bifunctional dihydrofolate reductase-thymidylate synthase (Toxoplasma gondii, UniProt Q07422)
Sequence (Q07422 whole entry): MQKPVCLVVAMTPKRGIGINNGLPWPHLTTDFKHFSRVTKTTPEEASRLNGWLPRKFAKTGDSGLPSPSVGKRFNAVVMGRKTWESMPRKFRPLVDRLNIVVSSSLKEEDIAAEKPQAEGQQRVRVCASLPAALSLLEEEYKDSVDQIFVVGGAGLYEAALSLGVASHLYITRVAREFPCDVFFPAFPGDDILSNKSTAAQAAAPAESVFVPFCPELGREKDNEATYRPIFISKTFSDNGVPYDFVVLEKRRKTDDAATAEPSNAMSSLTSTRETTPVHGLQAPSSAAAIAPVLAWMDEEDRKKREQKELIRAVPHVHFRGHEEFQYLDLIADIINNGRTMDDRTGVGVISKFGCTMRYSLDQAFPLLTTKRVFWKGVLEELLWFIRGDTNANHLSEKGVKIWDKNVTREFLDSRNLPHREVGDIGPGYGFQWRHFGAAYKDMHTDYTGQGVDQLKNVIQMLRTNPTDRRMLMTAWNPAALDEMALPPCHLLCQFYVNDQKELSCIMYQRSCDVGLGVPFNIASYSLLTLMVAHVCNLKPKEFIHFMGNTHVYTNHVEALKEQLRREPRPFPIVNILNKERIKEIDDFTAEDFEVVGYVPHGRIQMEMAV
Your answer should be a number followed by the unit of measure.

sampleSmiles: Cc1c(CSc2cccc3ccccc23)cnc2nc(N)nc(N)c12
IC50: 30 nM

sampleSmiles: COc1ccc(SCc2cnc3nc(N)nc(N)c3c2C)cc1OC
IC50: 30 nM

sampleSmiles: COc1cccc(C)c1NCc1cnc2nc(N)nc(N)c2n1
IC50: 1850 nM

sampleSmiles: Nc1nc(N)c2nc(CSc3ccc(Cl)cc3)cnc2n1
IC50: 16800 nM

sampleSmiles: COc1ccc(N(C)Cc2cnc3nc(N)nc(N)c3c2C)cc1OC
IC50: 2.9 nM

sampleSmiles: Nc1nc(N)c2cc(CNc3cccc4ccccc34)ccc2n1
IC50: 27 nM

sampleSmiles: COc1ccc(NCc2cnc3nc(N)nc(N)c3c2C)c(OC)c1
IC50: 10 nM

sampleSmiles: COc1ccc(OC)c(CCc2cnc3nc(N)nc(N)c3c2C)c1
IC50: 7.9 nM

sampleSmiles: COc1cccc(SCc2cnc3nc(N)nc(N)c3c2C)c1
IC50: 110 nM

Attention now shifts to the item below.
Request: So what does the record say about IC50 for Cc1c(CN(C)c2cccc3c2CCCC3)cnc2nc(N)nc(N)c12 ?
Response: 16 nM
